- Test system: Bacteroides fragilis ATCC 25285
- test protocol: MIC by microbroth dilution, Bacteroides fragilis
- Format: cell-based
- cond: Bacteroides fragilis ATCC 25285 (code 1011); anaerobe, 48 h; 0.01% BSA; inocula about 10^5 (1-4), about 5×10^5 cfu/ml (5, 6)
metric: MIC of the compounds (µg/mL)
Only the number, expressed in µg/mL, is required.

Find MIC of the compounds (Bacteroides fragilis ATCC 25285) for the entry CCN(CC)CCNC(=O)[C@@H]1CCCN1C(=O)[C@@H]1COC(c2csc(-c3ccc4c(n3)-c3csc(n3)-c3csc(n3)C(C(O)c3ccccc3)NC(=O)CNC(=O)c3nc(sc3CN(C)C)[C@H](C(C)C)NC(=O)c3nc(sc3C)[C@H](CC(=O)NC)NC(=O)c3csc-4n3)n2)=N1 (stereo partly drawn) [Compound 6] 64

Find MIC of the compounds (Bacteroides fragilis ATCC 25285) for the entry CNC(=O)CC1NC(=O)c2csc(n2)-c2ccc(-c3nc(C4=NC(C(=O)N5CCCC5C(N)=O)CO4)cs3)nc2-c2csc(n2)-c2csc(n2)C(C(O)c2ccccc2)NC(=O)CNC(=O)c2nc(sc2CN(C)C)C(C(C)C)NC(=O)c2nc1sc2C (stereo not drawn) [Compound 2] 128

Find MIC of the compounds (Bacteroides fragilis ATCC 25285) for the entry CCN(CC)Cc1sc2nc1C(=O)NCC(=O)NC(C(O)c1ccccc1)c1nc(cs1)-c1nc(cs1)-c1nc(-c3nc(C4=NC(C(=O)N5CCCC5C(N)=O)CO4)cs3)ccc1-c1nc(cs1)C(=O)NC(CC(=O)NC)c1nc(c(C)s1)C(=O)NC2C(C)C (stereo not drawn) [Compound 1] 64

Find MIC of the compounds (Bacteroides fragilis ATCC 25285) for the entry CCN(CC)CCNC(=O)[C@@H]1CCCN1C(=O)[C@@H]1COC(c2csc(-c3ccc4c(n3)-c3csc(n3)-c3csc(n3)C(C(O)c3ccccc3)NC(=O)CNC(=O)c3nc(sc3CO)[C@H](C(C)C)NC(=O)c3nc(sc3C)[C@H](CC(=O)NC)NC(=O)c3csc-4n3)n2)=N1 (stereo partly drawn) [Compound 5] 32
